Molecular target: PPIA (Homo sapiens)
Construct: Full length PPIA (residues 1-165) with an N-terminal 6×his-yBBR-TEV tag; 6×his-yBBR-TEV (N); made in house; host or cells: E. coli BL21 (DE3) CodonPlus RIPL
Sequence (P62937 whole entry, the tested form may be a part): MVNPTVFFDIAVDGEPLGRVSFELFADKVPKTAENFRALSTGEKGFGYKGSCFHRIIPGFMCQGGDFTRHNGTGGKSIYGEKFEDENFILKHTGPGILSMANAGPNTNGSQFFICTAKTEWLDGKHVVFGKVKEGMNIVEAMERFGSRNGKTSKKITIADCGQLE
Experiment: Phage Library Screening with NGS, PPIA
Type: binding
Conditions: target concentration 300
measured_parameter: phage screen counts, Target Concentration 300

DPARSDCHVAAYWCYHQ | 5
PDCHLNAYWCM | 47
DPASYDCHVAAYFCNFA | 197
PDCHVAAYICY | 38
DPARADCQVAAYWCYHQ | 16
DPARADCHVAAYWCHHQ | 5
PNCHLYAWECY | 4
PNCHVMAYWCW | 8
DPARADCHVAAYWCYQQ | 8
PTCHIHAYHCY | 5

A. PNCHVEAYFCM
B. PTCHIDAWVCY
Task: Would you kindly point out which of A and B has the smaller phage screen counts, Target Concentration 300 figure? Please identify the chosen entry by its label.
Output: B
(B: 12, A: 68)

A. DPALFDCHIAAYQCIFY
B. DPARADCHVAAYWCYHE
C. PDCHIAAWYCR
Task: Please put the entries in order of rising phage screen counts, Target Concentration 300. List the labels according to the requested ordering.
Output: C, B, A
